# test target: prostaglandin G/H synthase-2 (Ovis aries)
# Construct: purified from sheep placenta; from tissue; host or cells: sheep placenta
# test protocol: Inhibition of prostaglandin G/H synthase-2 (conversion of [14C]arachidonic acid to products)
# Assay type: biochemical
# setup conditions: pH 7.4, 10 μM; enzyme purified from sheep placenta; 15 min preincubation, pH 7.4, room temperature; read-out: % Inhibition of PGHS-2 at 10 μM
measured metric: inhibition at 10 µM (%)

| molecule | test target | unit string | relational operator | reported value |
| --- | --- | --- | --- | --- |
| COC(=O)CSC1c2ccccc2Oc2ccccc21 [Example 16, Methyl (xanthen-9-yl-thio)acetate] | prostaglandin G/H synthase-2 (Ovis aries) | % | = | 41 |
| COC(=O)CSC1(c2ccccc2)c2ccccc2-c2ccccc21 | prostaglandin G/H synthase-2 (Ovis aries) | % | = | 14 |
| COC(=O)CSC1c2ccccc2CCc2ccccc21 | prostaglandin G/H synthase-2 (Ovis aries) | % | = | 8 |
| COC(=O)CSC(c1cccs1)c1cccs1 | prostaglandin G/H synthase-2 (Ovis aries) | % | < | 10 |
| COC(=O)CSC(c1ccc(OC)cc1)(c1ccc(OC)cc1)c1ccc(OC)cc1 | prostaglandin G/H synthase-2 (Ovis aries) | % | = | 79 |
| COC(=O)CSC(c1ccccc1)(c1ccc(OC)cc1)c1ccc(OC)cc1 | prostaglandin G/H synthase-2 (Ovis aries) | % | = | 41 |
| COC(=O)CSC(c1ccccc1)(c1ccccc1)c1ccccc1 [Example 11, Methyl [(triphenylmethyl)thio]acetate] | prostaglandin G/H synthase-2 (Ovis aries) | % | = | 29 |
| COC(=O)CSC1c2ccccc2-c2ccccc21 [Example 10, Methyl (9-fluorenylthio)acetate] | prostaglandin G/H synthase-2 (Ovis aries) | % | = | 30 |
| COC(=O)CSC(c1ccc(N(C)C)cc1)c1ccc(N(C)C)cc1 | prostaglandin G/H synthase-2 (Ovis aries) | % | = | 86 |
| COC(=O)CSC1c2ccccc2C=Cc2ccccc21 | prostaglandin G/H synthase-2 (Ovis aries) | % | < | 10 |

* * *

# test target: prostaglandin G/H synthase-2 (Ovis aries)
# Construct: purified from sheep placenta; from tissue; host or cells: sheep placenta
# test protocol: Inhibition of prostaglandin G/H synthase-2 (conversion of [14C]arachidonic acid to products)
# Format: biochemical
# setup conditions: 10 μM; enzyme purified from sheep placenta; 15 min preincubation, pH 7.4, room temperature

| compound | test target | unit string | % Inhibition of PGHS-2 at 10 μM |
| --- | --- | --- | --- |
| COC(=O)CSC1c2ccccc2Oc2ccccc21 [Example 16, Methyl (xanthen-9-yl-thio)acetate] | prostaglandin G/H synthase-2 (Ovis aries) | % | 50 |
| COC(=O)CSC(c1ccc(N(C)C)cc1)c1ccc(N(C)C)cc1 | prostaglandin G/H synthase-2 (Ovis aries) | % | 92 |
| COC(=O)CSC(c1ccc(OC)cc1)c1ccc(OC)cc1 | prostaglandin G/H synthase-2 (Ovis aries) | % | 34 |
| COC(=O)CSC(c1ccc(OC)cc1)(c1ccc(OC)cc1)c1ccc(OC)cc1 | prostaglandin G/H synthase-2 (Ovis aries) | % | 83 |

* * *

# test target: prostaglandin G/H synthase-2 (Ovis aries, UniProt P79208)
# Construct: purified from sheep placenta; from tissue; host or cells: sheep placenta
# Sequence (P79208 17-603): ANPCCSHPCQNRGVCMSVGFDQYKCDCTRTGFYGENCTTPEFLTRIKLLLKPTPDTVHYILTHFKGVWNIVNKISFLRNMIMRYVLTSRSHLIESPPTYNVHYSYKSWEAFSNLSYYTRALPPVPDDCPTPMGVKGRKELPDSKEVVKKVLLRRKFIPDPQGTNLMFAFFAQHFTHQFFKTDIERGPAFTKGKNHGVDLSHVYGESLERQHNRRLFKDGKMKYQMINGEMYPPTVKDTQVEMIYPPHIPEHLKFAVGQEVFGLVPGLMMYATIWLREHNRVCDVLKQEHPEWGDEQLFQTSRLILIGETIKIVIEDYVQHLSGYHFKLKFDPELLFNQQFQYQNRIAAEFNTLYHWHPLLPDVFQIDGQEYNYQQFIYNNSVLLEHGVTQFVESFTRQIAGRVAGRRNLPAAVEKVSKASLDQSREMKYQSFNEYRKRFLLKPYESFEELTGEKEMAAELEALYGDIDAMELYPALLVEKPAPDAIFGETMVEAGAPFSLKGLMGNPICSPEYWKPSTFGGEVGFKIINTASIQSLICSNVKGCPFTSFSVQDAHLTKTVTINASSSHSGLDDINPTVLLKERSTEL
# test protocol: Inhibition of prostaglandin G/H synthase-2 (conversion of [14C]arachidonic acid to products)
# Assay type: biochemical
# setup conditions: pH 7.4, 100 μM; enzyme purified from sheep placenta; 15 min preincubation, pH 7.4, room temperature; read-out: % Inhibition of PGHS-2 at 100 μM
# Method: The compounds of the present invention were evaluated as selective inhibitors of prostaglandin G/H synthase-2 by determining the effect of the compounds on the conversion of [^14 C]arachidonic acid to products by prostaglandin G/H synthase-2 purified from sheep placenta. This enzyme shares immunoreactivity and sequence homology with human prostaglandin G/H synthase-2. […]
# key: entry, value: inhibition at 100 µM
measured metric: inhibition at 100 µM (%)

| compound | test target | measured metric | reported value |
| --- | --- | --- | --- |
| COC(=O)CSC(c1cccs1)c1cccs1 | prostaglandin G/H synthase-2 (Ovis aries, UniProt P79208) | inhibition at 100 µM | 33 |
| COC(=O)CSC1c2ccccc2C=Cc2ccccc21 | prostaglandin G/H synthase-2 (Ovis aries, UniProt P79208) | inhibition at 100 µM | 31 |
| COC(=O)CSC(c1ccccc1)(c1ccc(OC)cc1)c1ccc(OC)cc1 | prostaglandin G/H synthase-2 (Ovis aries, UniProt P79208) | inhibition at 100 µM | 49 |
| COC(=O)CSC1c2ccccc2CCc2ccccc21 | prostaglandin G/H synthase-2 (Ovis aries, UniProt P79208) | inhibition at 100 µM | 17 |
| COC(=O)CSC(c1ccccc1)(c1ccccc1)c1ccccc1 [Example 11, Methyl [(triphenylmethyl)thio]acetate] | prostaglandin G/H synthase-2 (Ovis aries, UniProt P79208) | inhibition at 100 µM | 62 |
| COC(=O)CSC1c2ccccc2Oc2ccccc21 [Example 16, Methyl (xanthen-9-yl-thio)acetate] | prostaglandin G/H synthase-2 (Ovis aries, UniProt P79208) | inhibition at 100 µM | 78 |
| COC(=O)CSC(c1ccc(OC)cc1)(c1ccc(OC)cc1)c1ccc(OC)cc1 | prostaglandin G/H synthase-2 (Ovis aries, UniProt P79208) | inhibition at 100 µM | 80 |
| COC(=O)CSC(c1ccc(N(C)C)cc1)c1ccc(N(C)C)cc1 | prostaglandin G/H synthase-2 (Ovis aries, UniProt P79208) | inhibition at 100 µM | 96 |
| COC(=O)CSC1c2ccccc2-c2ccccc21 [Example 10, Methyl (9-fluorenylthio)acetate] | prostaglandin G/H synthase-2 (Ovis aries, UniProt P79208) | inhibition at 100 µM | 77 |
| COC(=O)CSC1(c2ccccc2)c2ccccc2-c2ccccc21 | prostaglandin G/H synthase-2 (Ovis aries, UniProt P79208) | inhibition at 100 µM | 50 |
